The measured values listed here are drawn from patent USRE47141E1.

- system.under.test: ALK5 (Homo sapiens (Human))
- Sequence (P36897 34-503): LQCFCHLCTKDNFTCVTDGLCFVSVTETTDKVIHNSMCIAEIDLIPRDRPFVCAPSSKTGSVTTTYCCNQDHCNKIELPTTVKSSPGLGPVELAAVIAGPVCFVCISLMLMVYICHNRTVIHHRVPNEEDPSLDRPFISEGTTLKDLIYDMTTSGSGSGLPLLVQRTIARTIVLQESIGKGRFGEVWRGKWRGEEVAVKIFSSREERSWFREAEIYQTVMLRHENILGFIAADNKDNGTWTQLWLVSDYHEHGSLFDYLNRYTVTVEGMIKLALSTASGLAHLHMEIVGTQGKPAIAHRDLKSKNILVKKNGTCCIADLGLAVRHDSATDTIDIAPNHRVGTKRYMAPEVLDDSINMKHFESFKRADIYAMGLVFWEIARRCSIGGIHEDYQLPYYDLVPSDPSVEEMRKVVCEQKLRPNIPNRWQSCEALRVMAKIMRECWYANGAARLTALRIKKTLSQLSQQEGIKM
- experiment.description: Cell-free assay for inhibition of ALK5 kinase phosphorylation
- Format: biochemical
measured.parameter: IC50

**Q:** For the compound `Cc1cccc(-c2[nH]c(CNc3ccccc3C#N)nc2-c2ccc3ncnn3c2)n1` , what IC50 is on record?
**A:** 0.0195 µM

---

- system.under.test: VEGF-R3 (Homo sapiens (Human), UniProt P35916)
- Sequence (P35916 25-1363, species assumed): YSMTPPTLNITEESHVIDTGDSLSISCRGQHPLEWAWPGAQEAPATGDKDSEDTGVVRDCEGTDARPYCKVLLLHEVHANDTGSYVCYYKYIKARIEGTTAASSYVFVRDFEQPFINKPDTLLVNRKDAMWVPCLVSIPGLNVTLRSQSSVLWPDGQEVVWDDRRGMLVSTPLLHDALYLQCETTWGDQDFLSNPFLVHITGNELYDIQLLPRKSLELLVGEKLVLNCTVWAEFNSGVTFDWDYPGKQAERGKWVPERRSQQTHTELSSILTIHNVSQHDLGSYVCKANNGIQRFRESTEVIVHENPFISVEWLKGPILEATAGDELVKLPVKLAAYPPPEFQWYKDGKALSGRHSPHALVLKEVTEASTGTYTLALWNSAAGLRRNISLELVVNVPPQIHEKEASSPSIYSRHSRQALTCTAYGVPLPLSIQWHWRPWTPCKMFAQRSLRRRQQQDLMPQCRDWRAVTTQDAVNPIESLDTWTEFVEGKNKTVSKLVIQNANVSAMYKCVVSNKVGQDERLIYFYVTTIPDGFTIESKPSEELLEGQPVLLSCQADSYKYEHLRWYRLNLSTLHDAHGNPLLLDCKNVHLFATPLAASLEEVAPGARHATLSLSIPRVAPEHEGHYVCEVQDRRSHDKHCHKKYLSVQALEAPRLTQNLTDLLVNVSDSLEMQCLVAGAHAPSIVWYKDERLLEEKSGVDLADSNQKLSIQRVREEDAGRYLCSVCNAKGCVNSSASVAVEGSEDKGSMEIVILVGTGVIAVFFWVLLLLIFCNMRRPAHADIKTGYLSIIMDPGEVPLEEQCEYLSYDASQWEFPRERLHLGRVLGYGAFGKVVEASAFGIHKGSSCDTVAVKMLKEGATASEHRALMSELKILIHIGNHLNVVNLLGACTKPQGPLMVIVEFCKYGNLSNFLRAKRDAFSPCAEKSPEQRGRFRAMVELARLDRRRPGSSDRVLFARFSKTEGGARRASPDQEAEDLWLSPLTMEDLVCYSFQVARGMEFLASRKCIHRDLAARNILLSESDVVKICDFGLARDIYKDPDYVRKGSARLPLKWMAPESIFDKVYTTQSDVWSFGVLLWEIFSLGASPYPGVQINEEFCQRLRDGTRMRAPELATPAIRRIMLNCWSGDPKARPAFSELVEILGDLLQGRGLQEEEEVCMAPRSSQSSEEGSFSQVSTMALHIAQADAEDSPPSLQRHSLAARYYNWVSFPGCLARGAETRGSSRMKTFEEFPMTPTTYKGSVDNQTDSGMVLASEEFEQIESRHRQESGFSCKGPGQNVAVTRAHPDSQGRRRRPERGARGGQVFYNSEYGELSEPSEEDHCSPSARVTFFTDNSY
measured.parameter: IC50

**Q:** Enter reported IC50 observed with VEGF-R3 (Homo sapiens (Human), UniProt P35916) for Cc1cccc(-c2[nH]c(CNc3ccccc3F)nc2-c2ccc3ncnn3c2)n1 [Example 2]
**A:** 257 nM
